Where these numbers come from: ChEMBL document CHEMBL5154942

# test.description: Plasma protein binding in human at 1 to 100 uM incubated for 16 hrs by UPLC-MS/MS analysis
# Assay type: ADME, cell-free
# condition.parameters: dose 1-100 µM, read-out: PPB (converted)
property.measured: fraction unbound at 16 h, up to 100 µM
Lab note: record just the number, no unit beside it.

Challenge: Return fraction unbound at 16 h, up to 100 µM (reported value) for this compound: "CC(C)NC[C@@H](C(=O)N1CCN(c2ncnc3c2[C@H](C)CC(=O)N3)CC1)c1ccc(Cl)cc1"
Response given: 0.513

====

# measurement.target: Cytochrome P450 3A4 (Homo sapiens, UniProt P08684)
# Sequence (P08684 whole entry): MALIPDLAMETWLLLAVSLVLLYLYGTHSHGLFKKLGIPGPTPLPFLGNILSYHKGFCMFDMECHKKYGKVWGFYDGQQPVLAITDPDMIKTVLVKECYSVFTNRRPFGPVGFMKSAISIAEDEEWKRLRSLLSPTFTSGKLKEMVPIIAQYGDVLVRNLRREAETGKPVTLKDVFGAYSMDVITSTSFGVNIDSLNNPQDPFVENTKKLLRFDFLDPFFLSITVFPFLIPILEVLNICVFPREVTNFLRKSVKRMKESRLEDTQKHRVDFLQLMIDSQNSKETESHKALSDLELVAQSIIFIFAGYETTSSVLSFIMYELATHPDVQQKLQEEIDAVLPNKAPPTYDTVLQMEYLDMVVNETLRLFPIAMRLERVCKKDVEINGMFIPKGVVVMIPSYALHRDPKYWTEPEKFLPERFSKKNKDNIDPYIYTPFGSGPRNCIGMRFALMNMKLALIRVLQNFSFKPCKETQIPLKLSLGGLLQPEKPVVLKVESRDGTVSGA
property.measured: pIC50
Bear in mind: pIC50 is minus log10 of a mol/L concentration; give just that figure.

Challenge: Return pIC50 (reported value) for this compound: C[C@@H]1CC(=O)Nc2ncnc(N3CCN(C(=O)[C@H](CNC4C5COCC54)c4ccc(Cl)cc4)[C@@H]4C[C@@H]43)c21 (some centres undefined)
Response given: 5.36

Challenge: Return pIC50 (reported value) for this compound: "C[C@@H]1CC(=O)Nc2ncnc(N3CCN(C(=O)[C@H](CN)c4ccc(Cl)cc4)[C@@H]4C[C@@H]43)c21"
Response given: 5.00

Challenge: Return pIC50 (reported value) for this compound: "C[C@@H]1CC(=O)Nc2ncnc(N3CCN(C(=O)[C@H](CNC4CC4)c4ccc(Cl)cc4)[C@@H]4C[C@@H]43)c21"
Response given: 5.96

Challenge: Return pIC50 (reported value) for this compound: "CC(C)NC[C@@H](C(=O)N1CCN(c2ncnc3c2[C@H](C)CC(=O)N3)CC1)c1ccc(Cl)cc1"
Response given: 4.41

====

# System: ZR-75-1
# test.description: cells
# condition.parameters: Homo sapiens, ZR-75-1, 72 h
# Description: Antiproliferative activity against human ZR-75-1 habouring PTEN deletion mutant assessed as reduction in cell viability incubated for 72 hrs by Cell Titer Glo luminescent assay
property.measured: pIC50
Bear in mind: pIC50 is minus log10 of a mol/L concentration; give just that figure.

Challenge: Enter measured pIC50, system ZR-75-1, for the molecule shown: "CC(C)NC[C@@H](C(=O)N1CCN(c2ncnc3c2[C@H](C)C[C@H]3O)CC1)c1ccc(Cl)cc1"
Response given: 5.88

====

# test.description: Clearance in ICR mouse at 2 mg/kg, iv measured upto 24 hrs by UPLC-MS/MS analysis
# Assay type: ADME, organism-based
# condition.parameters: in vivo
property.measured: clearance
Hi, when you answer, please include the unit after the number. Thanks!

Challenge: Return clearance (reported value) for this compound: "CC(C)NC[C@@H](C(=O)N1CCN(c2ncnc3c2[C@H](C)CC(=O)N3)CC1)c1ccc(Cl)cc1"
Response given: 178 mL/min/kg

====

# test.description: AUC (0 to t) in Sprague-Dawley rat at 10 mg/kg, ig by UPLC-MS/MS analysis
# Format: ADME, organism-based
# Parameters: dose 10 mg/kg, route ig
# condition.parameters: in vivo, po
property.measured: AUC(0-t) (ng·h/mL)
State just the number; it will be interpreted in ng·h/mL.

Challenge: Return AUC(0-t) (reported value) for this compound: "CC(C)NC[C@@H](C(=O)N1CCN(c2ncnc3c2[C@H](C)CC(=O)N3)[C@H]2C[C@H]21)c1ccc(Cl)cc1"
Response given: 3880

====

# test.description: Half life in Sprague-Dawley rat at 5 mg/kg, iv measured upto 24 hrs by UPLC-MS/MS analysis
# Format: ADME, organism-based
# condition.parameters: in vivo
property.measured: half-life (h)
State just the number; it will be interpreted in h.

Challenge: Return half-life (reported value) for this molecule: "CC(C)NC[C@@H](C(=O)N1CCN(c2ncnc3c2[C@H](C)CC(=O)N3)[C@H]2C[C@H]21)c1ccc(Cl)cc1"
Response given: 2.97

====

# test.description: Half life in Sprague-Dawley rat at 10 mg/kg, ig by UPLC-MS/MS analysis
# Assay type: ADME, organism-based
# condition.parameters: in vivo, po
property.measured: half-life (h)
State just the number; it will be interpreted in h.

Challenge: Return half-life (reported value) for this compound: "CC(C)NC[C@@H](C(=O)N1CCN(c2ncnc3c2[C@H](C)CC(=O)N3)[C@H]2C[C@H]21)c1ccc(Cl)cc1"
Response given: 3.28

====

pIC50: −log10 of the molar value.
Would you mind telling me the reported pIC50 of each entry?

Challenge: Enter measured pIC50, system UniProt:P33261, for the compound shown: "CC(C)NC[C@@H](C(=O)N1CCN(c2ncnc3c2[C@H](C)CC(=O)N3)[C@H]2C[C@H]21)c1ccc(Cl)cc1"
Sequence (P33261 whole entry): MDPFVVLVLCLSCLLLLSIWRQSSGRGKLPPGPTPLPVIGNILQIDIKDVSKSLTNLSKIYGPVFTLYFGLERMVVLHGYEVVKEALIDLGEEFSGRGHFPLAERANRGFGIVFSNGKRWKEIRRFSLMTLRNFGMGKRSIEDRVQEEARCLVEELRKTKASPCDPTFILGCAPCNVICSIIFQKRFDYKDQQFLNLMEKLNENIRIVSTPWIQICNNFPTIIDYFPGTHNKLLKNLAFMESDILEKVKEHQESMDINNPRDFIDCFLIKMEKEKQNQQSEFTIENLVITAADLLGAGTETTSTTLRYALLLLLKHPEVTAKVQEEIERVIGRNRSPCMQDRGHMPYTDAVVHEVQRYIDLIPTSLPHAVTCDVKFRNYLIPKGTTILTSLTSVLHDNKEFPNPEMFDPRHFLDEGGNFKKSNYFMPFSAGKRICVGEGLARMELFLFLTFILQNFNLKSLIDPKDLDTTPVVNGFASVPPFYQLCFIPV
Response given: < 4.30

Challenge: Enter measured pIC50, system UniProt:P33261, for the compound shown: "CC(C)NC[C@@H](C(=O)N1CCN(c2ncnc3c2[C@H](C)CC(=O)N3)CC1)c1ccc(Cl)cc1"
Response given: < 4.30

====

# test.description: Half life in crab-eating monkey at 3 mg/kg, iv measured upto 24 hrs by UPLC-MS/MS analysis
# Format: ADME, organism-based, Macaca fascicularis
# condition.parameters: cynomolgus monkey, in vivo
property.measured: half-life (h)
State just the number; it will be interpreted in h.

Challenge: Return half-life (reported value) for this molecule: "CC(C)NC[C@@H](C(=O)N1CCN(c2ncnc3c2[C@H](C)CC(=O)N3)[C@H]2C[C@H]21)c1ccc(Cl)cc1"
Response given: 7.73

====

# measurement.target: RAC-alpha serine/threonine-protein kinase (Homo sapiens)
# Sequence (P31749 whole entry, the tested form may be a part): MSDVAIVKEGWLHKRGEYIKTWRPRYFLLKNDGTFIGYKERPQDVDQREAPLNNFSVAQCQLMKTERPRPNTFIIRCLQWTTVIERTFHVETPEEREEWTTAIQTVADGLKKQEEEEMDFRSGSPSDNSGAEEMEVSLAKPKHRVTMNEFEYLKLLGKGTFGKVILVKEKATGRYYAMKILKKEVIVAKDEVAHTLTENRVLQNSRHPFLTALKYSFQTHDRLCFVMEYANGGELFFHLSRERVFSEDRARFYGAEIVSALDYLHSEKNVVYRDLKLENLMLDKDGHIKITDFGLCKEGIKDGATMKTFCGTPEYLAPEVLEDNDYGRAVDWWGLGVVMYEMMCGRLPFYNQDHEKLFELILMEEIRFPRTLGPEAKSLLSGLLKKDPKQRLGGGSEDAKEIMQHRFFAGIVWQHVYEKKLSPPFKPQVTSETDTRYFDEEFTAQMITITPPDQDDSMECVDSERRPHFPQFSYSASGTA
# test.description: Inhibition of recombinant AKT1 (104 to 480 end residues) (unknown origin) catalytic domain expressed in Sf21 cells using peptide substrate incubated for 1 hr in presence of ATP by caliper off-chip mobility shift assay
property.measured: pIC50
Bear in mind: pIC50 is minus log10 of a mol/L concentration; give just that figure.

Challenge: Return pIC50 (reported value) for this compound: "CC(C)NC[C@@H](C(=O)N1[C@@H]2CC[C@H]1CN(c1ncnc3c1[C@H](C)OC(=O)N3)C2)c1ccc(Cl)cc1"
Response given: 9.22

Challenge: Return pIC50 (reported value) for this compound: "C[C@@H]1CC(=O)Nc2ncnc(N3CCN(C(=O)[C@H](CN)c4ccc(Cl)cc4)[C@@H]4C[C@@H]43)c21"
Response given: 8.17

Challenge: Return pIC50 (reported value) for this compound: CC(C)NC[C@@H](C(=O)N1CC2CC1CN2c1ncnc2c1[C@H](C)CC(=O)N2)c1ccc(Cl)cc1 (some centres undefined)
Response given: 6.38

====

# test.description: Metabolic stability in Sprague-Dawley rat liver microsomes assessed as parent compound remaining at 1 uM measured after 60 mins by UPLC-MS/MS analysis
# Type: ADME, Microsome
# condition.parameters: read-out: Stability
property.measured: remaining at 1 h, 1 µM (%)
State just the number; it will be interpreted in %.

Challenge: Return remaining at 1 h, 1 µM (reported value) for this molecule: "CC(C)NC[C@@H](C(=O)N1CCN(c2ncnc3c2[C@H](C)CC(=O)N3)[C@H]2C[C@H]21)c1ccc(Cl)cc1"
Response given: 88.8

====

# test.description: Tmax in NCG mouse xenografted with human LNCaP cells at 12.5 mg/kg administered once daily for 18 to 21 days and measured upto 10 hrs post last dose by LC-MS/MS analysis
# Assay type: ADME, organism-based
# condition.parameters: in vivo, time 18-21 day
property.measured: Tmax (h)
State just the number; it will be interpreted in h.

Challenge: Return Tmax (reported value) for this compound: "CC(C)NC[C@@H](C(=O)N1CCN(c2ncnc3c2[C@H](C)CC(=O)N3)[C@H]2C[C@H]21)c1ccc(Cl)cc1"
Response given: 2

====

# test.description: Half life in ICR mouse at 2 mg/kg, iv measured upto 24 hrs by UPLC-MS/MS analysis
# Format: ADME, organism-based
# condition.parameters: in vivo
property.measured: half-life
Hi, when you answer, please include the unit after the number. Thanks!

Challenge: Return half-life (reported value) for this compound: "CC(C)NC[C@@H](C(=O)N1CCN(c2ncnc3c2[C@H](C)CC(=O)N3)CC1)c1ccc(Cl)cc1"
Response given: 93.6 min

====

# test.description: Apparent volume of distribution at steady state in Sprague-Dawley rat at 5 mg/kg, iv measured upto 24 hrs by UPLC-MS/MS analysis
# Assay type: ADME, organism-based
# condition.parameters: in vivo, read-out: Vdss(app)
property.measured: Vd (L/kg)
State just the number; it will be interpreted in L/kg.

Challenge: Return Vd (reported value) for this compound: "CC(C)NC[C@@H](C(=O)N1CCN(c2ncnc3c2[C@H](C)CC(=O)N3)[C@H]2C[C@H]21)c1ccc(Cl)cc1"
Response given: 7.76

====

# test.description: Metabolic stability in Sprague-Dawley rat liver microsomes assessed hepatic clearance at 1 uM measured after 60 mins by LC-MS/MS analysis
# Type: ADME, Microsome
# condition.parameters: 1 h
property.measured: CLH

Challenge: Return CLH (reported value) for this molecule: "CC(C)NC[C@@H](C(=O)N1CCN(c2ncnc3c2[C@H](C)CC(=O)N3)[C@H]2C[C@H]21)c1ccc(Cl)cc1"
Response given: < 12.2 mL/min/kg
